# System: Mythimna separata
# protocol.details: Insecticidal activity against Mythimna separata (Oriental armyworm) fourth-instar larvae reared compound pre-treated corn leaves assessed as insect mortality at 200 mg/L measured 2 days post compound dose
# Assay type: functional
satisfied means recorded mortality at 200 µg/mL is 90% or above; not satisfied means it is below 90%.

| compound | assigned.class |
| --- | --- |
| CCC(C)[C@H]1O[C@]2(CC[C@@H]1C)C[C@@H]1C[C@@H](C/C=C(\C)[C@@H](OC(=O)C3C(C=C(Br)Br)C3(C)C)[C@@H](C)/C=C/C=C3\CO[C@@H]4[C@H](O)C(C)=C[C@@H](C(=O)O1)[C@]34O)O2 (stereo partly drawn) | satisfied |
| CCC(C)[C@H]1O[C@]2(CC[C@@H]1C)C[C@@H]1C[C@@H](C/C=C(\C)[C@@H](O[C@H]3C[C@H](OC)[C@@H](OC(=O)c4ccc(F)cc4)[C@H](C)O3)[C@@H](C)/C=C/C=C3\CO[C@@H]4/C(=N/OC)C(C)=C[C@@H](C(=O)O1)[C@]34O)O2 (stereo partly drawn) | not satisfied |
| CCC(C)[C@H]1O[C@]2(CC[C@@H]1C)C[C@@H]1C[C@@H](C/C=C(\C)[C@@H](OC(=O)/C(=N\OC)c3ccccc3)[C@@H](C)/C=C/C=C3\CO[C@@H]4/C(=N/OC)C(C)=C[C@@H](C(=O)O1)[C@]34O)O2 (stereo partly drawn) | not satisfied |
| CCC(C)[C@H]1O[C@]2(CC[C@@H]1C)C[C@@H]1C[C@@H](C/C=C(\C)[C@@H](O[C@H]3C[C@H](OC)[C@@H](OC(=O)C4C(C=C(Cl)Cl)C4(C)C)[C@H](C)O3)[C@@H](C)/C=C/C=C3\CO[C@@H]4[C@H](O)C(C)=C[C@@H](C(=O)O1)[C@]34O)O2 (stereo partly drawn) | not satisfied |

----------
Below, each of the compounds is paired with its reported mortality at 200 µg/mL value.
# System: Mythimna separata
# protocol.details: Insecticidal activity against Mythimna separata (Oriental armyworm) fourth-instar larvae reared compound pre-treated corn leaves assessed as insect mortality at 200 mg/L measured 2 days post compound dose
# Assay type: functional

| compound | mortality at 200 µg/mL [%] |
| --- | --- |
| CCC(C)[C@H]1O[C@]2(CC[C@@H]1C)C[C@@H]1C[C@@H](C/C=C(\C)[C@@H](O[C@H]3C[C@H](OC)[C@@H](OC(=O)c4ccc(OC)cc4)[C@H](C)O3)[C@@H](C)/C=C/C=C3\CO[C@@H]4[C@H](O)C(C)=C[C@@H](C(=O)O1)[C@]34O)O2 (stereo not given in full) | 100 |
| CCC(C)[C@H]1O[C@]2(CC[C@@H]1C)C[C@@H]1C[C@@H](C/C=C(\C)[C@@H](OC(=O)c3cc(F)c(Cl)nc3Cl)[C@@H](C)/C=C/C=C3\CO[C@@H]4[C@H](O)C(C)=C[C@@H](C(=O)O1)[C@]34O)O2 (stereo not given in full) | 50.9 |
| CCC(C)[C@H]1O[C@]2(CC[C@@H]1C)C[C@@H]1C[C@@H](C/C=C(\C)[C@@H](O[C@H]3C[C@H](OC)[C@@H](OC(=O)c4ccccc4OC)[C@H](C)O3)[C@@H](C)/C=C/C=C3\CO[C@@H]4[C@H](O)C(C)=C[C@@H](C(=O)O1)[C@]34O)O2 (stereo not given in full) | 98.2 |
| CCC(C)[C@H]1O[C@]2(CC[C@@H]1C)C[C@@H]1C[C@@H](C/C=C(\C)[C@@H](OC(=O)Cc3ccccc3)[C@@H](C)/C=C/C=C3\CO[C@@H]4[C@H](O)C(C)=C[C@@H](C(=O)O1)[C@]34O)O2 (stereo not given in full) | 89.9 |
| CCC(C)[C@H]1O[C@]2(CC[C@@H]1C)C[C@@H]1C[C@@H](C/C=C(\C)[C@@H](O[C@H]3C[C@H](OC)[C@@H](OC(=O)Nc4ccccc4)[C@H](C)O3)[C@@H](C)/C=C/C=C3\CO[C@@H]4[C@H](O)C(C)=C[C@@H](C(=O)O1)[C@]34O)O2 (stereo not given in full) | 100 |

----------
Below, each of the molecules is paired with its reported mortality at 200 µg/mL value.
# System: Mythimna separata
# protocol.details: Insecticidal activity against Mythimna separata (Oriental armyworm) fourth-instar larvae reared compound pre-treated corn leaves assessed as insect mortality at 200 mg/L measured 2 days post compound dose
# Format: functional

| molecule | measurement.units | mortality at 200 µg/mL |
| --- | --- | --- |
| CCC(C)[C@H]1O[C@]2(CC[C@@H]1C)C[C@@H]1C[C@@H](C/C=C(\C)[C@@H](O[C@H]3C[C@H](OC)[C@@H](OC(=O)c4ccc(OC)cc4)[C@H](C)O3)[C@@H](C)/C=C/C=C3\CO[C@@H]4/C(=N/OC)C(C)=C[C@@H](C(=O)O1)[C@]34O)O2 (some centres undefined) | % | 0 |
| CCC(C)[C@H]1O[C@]2(CC[C@@H]1C)C[C@@H]1C[C@@H](C/C=C(\C)[C@@H](OC(=O)c3ccc(OC)cc3)[C@@H](C)/C=C/C=C3\CO[C@@H]4[C@H](O)C(C)=C[C@@H](C(=O)O1)[C@]34O)O2 (some centres undefined) | % | 100 |
| CCC(C)[C@H]1O[C@]2(CC[C@@H]1C)C[C@@H]1C[C@@H](C/C=C(\C)[C@@H](OC(=O)Nc3ccc(Cl)cc3)[C@@H](C)/C=C/C=C3\CO[C@@H]4[C@H](O)C(C)=C[C@@H](C(=O)O1)[C@]34O)O2 (some centres undefined) | % | 88.5 |
| CCC(C)[C@H]1O[C@]2(CC[C@@H]1C)C[C@@H]1C[C@@H](C/C=C(\C)[C@@H](OC(=O)c3ccc(F)cc3)[C@@H](C)/C=C/C=C3\CO[C@@H]4/C(=N/OC)C(C)=C[C@@H](C(=O)O1)[C@]34O)O2 (some centres undefined) | % | 0 |
| C/C=C\C(=O)O[C@@H]1/C(C)=C/C[C@@H]2C[C@@H](C[C@]3(CC[C@H](C)[C@@H](C(C)CC)O3)O2)OC(=O)[C@@H]2C=C(C)[C@@H](O)[C@H]3OC/C(=C\C=C\[C@@H]1C)[C@]32O (some centres undefined) | % | 76.8 |
| CCC(C)[C@H]1O[C@]2(CC[C@@H]1C)C[C@@H]1C[C@@H](C/C=C(\C)[C@@H](O[C@H]3C[C@H](OC)[C@@H](OC(=O)C4C(C=C(Br)Br)C4(C)C)[C@H](C)O3)[C@@H](C)/C=C/C=C3\CO[C@@H]4[C@H](O)C(C)=C[C@@H](C(=O)O1)[C@]34O)O2 (some centres undefined) | % | 83.3 |
| CCC(C)[C@H]1O[C@]2(CC[C@@H]1C)C[C@@H]1C[C@@H](C/C=C(\C)[C@@H](OC(=O)Nc3ccccc3)[C@@H](C)/C=C/C=C3\CO[C@@H]4[C@H](O)C(C)=C[C@@H](C(=O)O1)[C@]34O)O2 (some centres undefined) | % | 100 |
| CCC(C)[C@H]1O[C@]2(CC[C@@H]1C)C[C@@H]1C[C@@H](C/C=C(\C)[C@@H](O[C@H]3C[C@H](OC)[C@@H](OC(=O)/C(=N\OC)c4ccccc4)[C@H](C)O3)[C@@H](C)/C=C/C=C3\CO[C@@H]4/C(=N/OC)C(C)=C[C@@H](C(=O)O1)[C@]34O)O2 (some centres undefined) | % | 0 |
| CCC(C)[C@H]1O[C@]2(CC[C@@H]1C)C[C@@H]1C[C@@H](C/C=C(\C)[C@@H](O[C@H]3C[C@H](OC)[C@@H](OC(=O)Nc4ccc(Cl)cc4)[C@H](C)O3)[C@@H](C)/C=C/C=C3\CO[C@@H]4[C@H](O)C(C)=C[C@@H](C(=O)O1)[C@]34O)O2 (some centres undefined) | % | 77.9 |

----------
Below, each of the compounds is paired with its reported mortality at 200 µg/mL value.
# Tested on: Mythimna separata
# protocol.details: Insecticidal activity against Mythimna separata (Oriental armyworm) fourth-instar larvae reared compound pre-treated corn leaves assessed as insect mortality at 200 mg/L measured 2 days post compound dose
# Assay type: functional
assay.metric: mortality at 200 µg/mL (%)

| compound | tested.system | assay.metric | measurement.units | numeric.readout |
| --- | --- | --- | --- | --- |
| CCC(C)[C@H]1O[C@]2(CC[C@@H]1C)C[C@@H]1C[C@@H](C/C=C(\C)[C@@H](O[C@H]3C[C@H](OC)[C@@H](OC(=O)c4ccccc4)[C@H](C)O3)[C@@H](C)/C=C/C=C3\CO[C@@H]4/C(=N/OC)C(C)=C[C@@H](C(=O)O1)[C@]34O)O2 (some centres undefined) | Mythimna separata | mortality at 200 µg/mL | % | 0 |
| CCC(C)[C@H]1O[C@]2(CC[C@@H]1C)C[C@@H]1C[C@@H](C/C=C(\C)[C@@H](O[C@H]3C[C@H](OC)[C@@H](OC(=O)c4ccc(Cl)cc4)[C@H](C)O3)[C@@H](C)/C=C/C=C3\CO[C@@H]4/C(=N/OC)C(C)=C[C@@H](C(=O)O1)[C@]34O)O2 (some centres undefined) | Mythimna separata | mortality at 200 µg/mL | % | 0 |
| CCC(C)[C@H]1O[C@]2(CC[C@@H]1C)C[C@@H]1C[C@@H](C/C=C(\C)[C@@H](OC(=O)c3ccccc3)[C@@H](C)/C=C/C=C3\CO[C@@H]4/C(=N/OC)C(C)=C[C@@H](C(=O)O1)[C@]34O)O2 (some centres undefined) | Mythimna separata | mortality at 200 µg/mL | % | 0 |
| CCC(C)[C@H]1O[C@]2(CC[C@@H]1C)C[C@@H]1C[C@@H](C/C=C(\C)[C@@H](OC(=O)c3ccc(F)cc3)[C@@H](C)/C=C/C=C3\CO[C@@H]4[C@H](O)C(C)=C[C@@H](C(=O)O1)[C@]34O)O2 (some centres undefined) | Mythimna separata | mortality at 200 µg/mL | % | 83.3 |
